system: CAKI-1 renal; assay: NCI-60 one-dose screen, 48 h (100 = growth as untreated, 0 = no growth, -100 = all killed); conditions: 10 µM unless noted
The panel holds about 83,000 compounds, 20% with a hit somewhere; the sample as a whole holds those more often.
Provide the recorded growth for the entries that follow.
Express it in %; write the number only.

Q. Which value of growth has been reported for "COc1ccc(C/C(=C(\C)c2ccc(OCCN3CCCC3)cc2)c2ccc(OCCN3CCCC3)cc2)cc1" in the records?
A. 80.7

Q. Suppose we examine the molecule CN1CCC(=C(c2ccccc2)c2ccccc2)C(c2ccccc2)C1 (configuration not stated) ; what growth value has been reported?
A. 66.4

Q. Which growth reading was recorded for the molecule "COc1cc(/C=C2\COc3ccc(-c4ccccc4)cc3C2=O)cc(OC)c1" ?
A. 71.6

Q. Quick check: growth of "Cc1cc2nc3c4cc(C=O)ccc4n(CCN(C)C)c3nc2cc1C" ?
A. 3.46

Q. Look at this molecule and give its reported growth. Cc1ccc(C(=O)/C(=C\c2ccc([N+](=O)[O-])cc2)S(=O)Cc2ccc(Cl)cc2)cc1 (configuration not stated)
A. 59.7

Q. I would be grateful if you could share the reported growth for "CC[C@]12C=CCN3CC[C@@]4(c5cc(NC(=O)CCC(=O)O[C@H]6CC[C@H]7[C@@H]8CCC9=CC(=O)CC[C@@H]9[C@H]8CC[C@]67C)c(OC)cc5N(C)[C@H]4[C@@](O)(C(=O)OC)[C@@H]1OC(C)=O)[C@@H]32" .
A. 67.8

Q. Would you mind telling me what growth value was observed for "Cc1nn(-c2ccccc2)c(Cl)c1/C=C/C(=O)c1ccc(F)cc1" ?
A. 95.9

Q. Endpoint output: growth of "COc1ccccc1NS(=O)(=O)c1cccc(C(=O)Nc2ccc(Br)cc2)c1" . Value?
A. 27.5

Q. Return reported growth; argument: "C=C1C(=O)O[C@H]2[C@H]1CC/C(CNC(=O)/C=C/c1ccccc1)=C\CC[C@@]1(C)O[C@@H]21"
A. -88.1

Q. Consider the molecule "COc1ccc(/C=C(\C#N)n2nc3cccc(F)c3n2)cc1" and give its measured growth.
A. 81.2

Q. Look at this molecule and give its reported growth. Cn1cc(CC2CC(=O)N(c3ccccc3)C2=O)sc1=NC(=O)c1ccccc1 (configuration not stated)
A. 94.7

Q. Which growth reading was recorded for the molecule "COc1cc(F)c(/C=C/c2cc(/C=C/c3cc(OC)c(OC)cc3F)on2)cc1OC" ?
A. 90.1

Q. Recorded growth of "COc1cc(/C=C/c2cc(O)c(C(C)=O)c(O)c2)cc2c1O[C@]1(C)CC[C@@H](O)C(C)(C)[C@H]1C2" , please.
A. 45

Q. Entry "CCCCCC(=O)Oc1ccc(/C(=C(\C)c2ccccc2)c2ccc(OCCN3CCCCC3)cc2)cc1" : reported growth = ?
A. 88.6

Q. growth lookup needed for "Cc1nn(-c2ccccc2)c(Cl)c1/C=N\N=c1/sc2ccccc2n1C" , thanks.
A. 101

Q. # input molecule: "Cc1cnc(C(=O)Nc2nc3ccc(S(=O)(=O)Nc4ccc(C5(C(F)(F)F)CC5)cc4)cc3[nH]2)cn1" ; wanted: its growth
A. 22.6

Q. Looking for the measured growth of "CC1(C)c2[nH]c3ccccc3c2C[C@]2(C)[C@H]3C(=O)C=C4[C@@H]5C[C@@](C)(C(N)=O)CC[C@]5(C)CC[C@@]4(C)[C@]3(C)CC[C@@H]12" , can you help?
A. 82.8

###

test system: ACHN renal; experiment: NCI-60 one-dose screen, 48 h (100 = growth as untreated, 0 = no growth, -100 = all killed); details: 10 µM unless noted
Compounds without any hit were thinned out: in the full panel of roughly 83,000, 20% have a hit. The source made the active and inactive calls. The calls were made as follows: active = growth percent below 10; inactive = the rest.
Could you please report measured growth for the items listed next?

Q. Hi! What's the reported growth for "CC(C)(C)c1ccc(NS(=O)(=O)c2ccc3nc(NC(=O)c4cnccn4)[nH]c3c2)cc1" on ACHN renal?
A. 39.6% (inactive)

Q. Could you share what growth was measured for "CCN(CC)CCn1c(=O)c2cc(OC)c(OC)cc2c2ccc3cc4c(cc3c21)OCO4" , tested on ACHN renal?
A. 10.2% (inactive)

Q. Identify the measured growth of CCSCC1CC(O)(c2ccccc2)CC(c2ccc(F)cc2)O1 (stereo not drawn) for ACHN renal.
A. 3.1% (active)

###

tested on: HT29 colon; experiment: NCI-60 one-dose screen, 48 h; details: 10 µM unless noted
The panel holds about 83,000 compounds, 20% with a hit somewhere; the sample as a whole holds those more often. Activity calls are given as the source filed them. The calls were made as follows: active = growth percent below 10; inactive = the rest.
Select the correct class. Options are label 1 = active, label 0 = inactive and nothing else.

Q. How did this test come out for "COc1ccc(-c2[nH][nH]c(=O)c2-c2nc3ccccc3s2)cc1" ?
A. label 0

Q. // outcome(item) with item = "NC(=NCCCOc1ccc(F)cc1)Nc1ccc(I)cc1"
A. label 0

Q. I'd appreciate the recorded outcome for COC(=O)C(CC=O)C(=O)C(=O)Nc1cccc(C(F)(F)F)c1 (stereo not drawn) from this test.
A. label 0

Q. Entry "COc1ccccc1NS(=O)(=O)c1cccc(C(=O)Nc2ccc(Br)cc2)c1" : call = ?
A. label 0

Q. How was CC(=O)N1N=C(c2ccc(-n3ccc(C(F)(F)F)n3)c(F)c2)CC1c1ccc[nH]1 (stereo not drawn) classified in this test?
A. label 0

Q. Field: outcome | Entry: "O=C1c2c(c3c4cccc(F)c4[nH]c3c3ccc4ccccc4c23)C(=O)N1O"
A. label 0

Q. Could you check what this test reported for "N#C/C(=C\c1ccc(C(F)(F)F)cc1)c1cc2ccccc2[nH]1" ?
A. label 0

Q. Test call for this compound, please: "CCOC(=O)Oc1c(OC)cc(C(=O)c2ccc(OC)c(O)c2OC)cc1OC"
A. label 0

Q. I'd appreciate the recorded outcome for "O=C1c2ccc3c4c(ccc(c24)C(=O)N1CCCNCc1ccccc1F)C(=O)N(CCCNCc1ccccc1F)C3=O" from this test.
A. label 1

Q. Assay outcome for "CCN(CC)c1ccc(/C=N/NC(=O)CSc2nc3ccccc3c(=O)n2Cc2ccc(S(N)(=O)=O)cc2)c(O)c1" : what was it?
A. label 0

Q. How did this test come out for CC1=C(C(=O)/C=C/c2c[nH]c3ccccc23)C(c2ccccc2)NC(=S)N1 (stereo not drawn) ?
A. label 0

Q. In this assay, the call recorded for "O=S(=O)(Nc1ccc(-n2cnc3cc(-c4ccc(O)cc4)ccc32)cc1)c1ccccc1" was what?
A. label 0

Q. Short answer needed: outcome of this test for "C/C(=N\NC(=O)CSc1nc2ccccc2c(=O)n1CCc1ccc(S(N)(=O)=O)cc1)c1ccccn1" ?
A. label 0

Q. Hi, sorry to bother you, what did the test record for "O=S(=O)(NCCCNc1nccc(-c2c(-c3cccc(O)c3)nc3occn23)n1)c1ccc(Cl)cc1" ?
A. label 0

Q. Assay outcome for "N#Cc1c(NCc2ccccc2I)sc2c1CCCCC2" : what was it?
A. label 0

Q. Please indicate how the test categorized COc1cc(C2C3=C(COC3=O)N(CCO)c3cc4c(cc32)OCO4)cc(OC)c1OC (stereo not drawn) .
A. label 1

Q. What outcome does the record of this test show for "C#CCNC(=O)[C@H](Cc1ccccc1)NC(=O)[C@]12CC[C@@H](C(=C)C)[C@@H]1[C@H]1CC[C@@H]3[C@@]4(C)CCC(=O)C(C)(C)[C@@H]4CC[C@@]3(C)[C@]1(C)CC2" ?
A. label 0

Q. What was the test verdict on "O=C(Nc1ccc(-c2ccc3c(c2)NC(=O)/C3=C\c2ccc[nH]2)cc1)NC1CC1" ?
A. label 0

Q. Entry COc1cc(NC(C)CCCNC(=O)CCC(=O)NCCCNCCCCCCCCCCNCCCNC(=O)CCC(=O)NCCCC(C)Nc2cc(OC)cc3cccnc23)c2ncccc2c1 (stereo not drawn) : call = ?
A. label 0

Q. I would be grateful if you could indicate the recorded call for "O=C1CC(=O)OC(c2ccc([N+](=O)[O-])cc2)O1" .
A. label 1

Q. // outcome(item) with item = "COc1ccc(/C=C2\Oc3cc(OCCCCCN4CCCCC4)ccc3C2=O)cc1OC"
A. label 1

Q. Which outcome did this test record for the compound "COc1cccc(-c2ccc3c(c2)NC(=O)/C3=C\c2ccc[nH]2)c1" ?
A. label 0

Q. Hi, do you know how "O=C1Nc2cc(-c3ccc(NC(=O)C4CC4)cc3)ccc2/C1=C/c1ccc[nH]1" came out in this test?
A. label 0

Q. Outcome? "CCOC(=O)c1cc(C(=O)c2ccc(Br)cc2)n2ccc(/C=C/c3cc[n+](CC(=O)c4ccc(OC)cc4)cc3)cc12"
A. label 0

Q. In this assay, the call recorded for "COC1=CC(=O)c2ccccc2C1=O" was what?
A. label 0

Q. Hi, sorry to bother you, what did the test record for "O=S(=O)(NCCNc1nccc(-c2c(-c3cccc(O)c3)nc3occn23)n1)c1ccc(Cl)cc1" ?
A. label 0

Q. Short answer needed: outcome of this test for N#CC(C(=O)/C(=N/NC(=O)c1ccccc1O)C(C#N)c1ccccc1)c1ccccc1 (stereo not drawn) ?
A. label 0

Q. Name the outcome recorded for "N=C(N)c1ccc(OCCCCCCCCCCOc2ccc(C(=N)N)cc2)cc1" in the assay.
A. label 1
